This collection of values is drawn from PubChem BioAssay AID1851.

# SYSTEM TESTED: Cytochrome P450 2D6 (Homo sapiens) (UniProt P10635)
# Sequence (P10635 whole entry, looked up): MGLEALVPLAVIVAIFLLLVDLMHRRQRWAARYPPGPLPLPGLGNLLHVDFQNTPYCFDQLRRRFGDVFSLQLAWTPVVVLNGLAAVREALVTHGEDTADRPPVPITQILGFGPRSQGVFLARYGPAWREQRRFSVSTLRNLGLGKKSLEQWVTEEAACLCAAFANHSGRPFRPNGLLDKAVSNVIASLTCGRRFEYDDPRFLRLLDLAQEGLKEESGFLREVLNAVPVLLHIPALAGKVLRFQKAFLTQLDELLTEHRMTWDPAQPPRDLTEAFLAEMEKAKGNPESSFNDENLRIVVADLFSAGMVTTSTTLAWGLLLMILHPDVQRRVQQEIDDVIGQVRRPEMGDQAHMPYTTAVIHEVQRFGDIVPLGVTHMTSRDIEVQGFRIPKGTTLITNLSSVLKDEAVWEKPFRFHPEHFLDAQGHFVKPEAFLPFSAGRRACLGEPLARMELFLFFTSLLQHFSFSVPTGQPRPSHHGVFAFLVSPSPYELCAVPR
# PROCEDURE SUMMARY: Cytochrome panel assay with activity outcomes
# COND: recombinant CYP, pro-luciferin dealkylation, luminescence, p450-cyp2d6; series mostly up to 57.1 µM
Hit rate of the full screen: of about 16,000 compounds, about 2,600 (16%) were called active. Not shown: some 20% with an inconclusive outcome. Calls follow the shape of the dose curve; as a rule, active = well fitted curve in the direction sought with a large enough effect; inconclusive = small, poorly fitted or top-dose-only effect, or effect the other way; inactive = no such curve, though single readings can be large or run the other way. A selection follows.
Respond using exactly one of the listed classes: active, inactive

MOLECULE: Cc1ccc(C(=O)Nc2ccc(N3CCOCC3)nc2)cc1
SYSTEM TESTED: Cytochrome P450 2D6 (Homo sapiens) (UniProt P10635)
GROUP: inactive
--
MOLECULE: O=[N+]([O-])c1ccc(N2CCCC2)cc1N1CCCC1
SYSTEM TESTED: Cytochrome P450 2D6 (Homo sapiens) (UniProt P10635)
GROUP: inactive
--
MOLECULE: O=C(Cc1cccs1)N/N=C/C(Br)=C/c1ccccc1
SYSTEM TESTED: Cytochrome P450 2D6 (Homo sapiens) (UniProt P10635)
GROUP: inactive

Exercise: Which outcome was assigned to COc1ccc(/C=N/NC(=O)c2ccn[nH]2)cc1COc1ccc(F)cc1 in this test?
Key: inactive
